These measurements were taken from patent US20100129800A1.

- experiment: Fluorescence properties of the new compounds (excitation and emission wavelengths)
- Format: physicochemical
- measurement.setup: free compound
outcome.measure: Fluorescence emission (nm)
Answers are plain numbers, in nm.

Examples from the recorded data:
compound=CC(=O)N[C@@H](CCCNC(=O)CNC(=O)c1c2ccccc2nc2ccccc12)C(=O)N[C@@H](CCCNC(=O)CNC(=O)c1c2ccccc2nc2ccccc12)C(=O)N[C@@H](CCCNC(=O)CNC(=O)c1c2ccccc2nc2ccccc12)C(N)=O measured_number=435
compound="C[C@@H](O)[C@H](CO)NC(=O)CN1c2ccccc2C=C2C3C=CC=CC3=NC21 (stereo partly drawn)" measured_number=456

Kindly review the next compound as well.
query: What measured Fluorescence emission (nm) goes with CC(O)C(COP(=O)(O)OC(C)C(COP(=O)(O)OC(C)C(CO)NC(=O)c1c2ccccc2nc2ccccc12)NC(=O)c1c2ccccc2nc2ccccc12)NC(=O)c1c2ccccc2nc2ccccc12 (stereo not drawn) ?
result: 440
